Assignment: determine reported TGI for the given compounds.
- System: SN12C renal
- method: NCI tumour cell line growth inhibition, 48 h

Give its TGI value. Item: CC1(C)CCc2c(c(N=Nc3ccc(F)cc3)c3ccccc3c2O)O1
> 100 µM

Give its TGI value. Item: Cc1ccc(NC(=O)CSC(N)=O)cc1C
> 100 µM

Give its TGI value. Item: O=c1[nH]c(=S)c2cc3c(=S)[nH]c(=O)n(CCO)c3nc2n1CCO
> 100 µM

Give its TGI value. Item: CC(C)(C)CC(C)(C)c1ccc(O)c(C[N+](C)(C)[O-])c1
> 100 µM

Give its TGI value. Item: O=c1ccc2ccc(O)cc2o1
> 100 µM

Give its TGI value. Item: COc1cccc2c1n([O-])c1cccc(OC)c1[n+]2=O
> 100 µM

Give its TGI value. Item: CC(=O)[O-].O=C([CH-]C(=O)c1ccccc1)c1ccccc1.O=C([CH-]C(=O)c1ccccc1)c1ccccc1.[Sm+3]
24.8 µM

Give its TGI value. Item: CC(C)(C)[Si](C)(C)OCC1OC(n2cnc3c(=O)[nH]c(N)nc32)C(O[Si](C)(C)C(C)(C)C)C1O[Si](C)(C)C(C)(C)C (stereo unspecified)
5.02 µM

Give its TGI value. Item: CCN(CC)c1ccc(/C=C/C=C2\NC(=O)NC2=O)cc1
> 100 µM

Give its TGI value. Item: Cn1c(=O)c2/c(n(C)c1=O)=N\C=c1\c(=O)n(C)c(=O)n(C)\c1=N\C=2
> 100 µM

Give its TGI value. Item: CCSc1ccc(C2C(Br)C(=O)N2c2cc(OC)c(OC)c(OC)c2)cc1 (stereo unspecified)
21 µM
